For each entry below, report its GI50 value.
# Test system: UACC-257
# assayNotes: NCI tumour cell line growth inhibition, 48 h
Active and inactive are the calls of the source. No stated cut-off is given here; in the data, active = GI50 up to about 1.1 µM and inactive = higher.

O=C(Nc1cccc(C(F)(F)F)c1)c1cc(-c2ccccc2)nc(S)n1
> 100 µM (inactive)
O=C1Nc2c(Cl)cc(Cl)cc2/C1=N/NC(=O)c1ccncc1
19.6 µM (inactive)

Hi team, please reply with GI50 for each item in this list.
1. CN(C)CCCNC(=O)c1cn2c(ccc3sc4ccccc4c(=O)c32)n1
2. Oc1ccc(-c2nc3ccc(Br)cc3s2)cc1
3. CCOC(=O)C1=C(N)N(c2ccccc2)/C(=C(/C#N)c2nc3ccccc3[nH]2)S1
4. O=C1CCCCC(=O)OC2(CCCCC2=O)CC1 (stereo unspecified)

1. 15.1 µM (inactive)
2. 21.4 µM (inactive)
3. > 100 µM (inactive)
4. > 100 µM (inactive)

====

# System: SNB-75
# assayNotes: NCI tumour cell line growth inhibition, 48 h
Activity calls are given as the source filed them. No stated cut-off is given here; in the data, active = GI50 up to about 1.1 µM and inactive = higher.
For each entry below, report its GI50 value.

CC1=C(C)CC2(CCCCC2=O)[S+]([O-])C1 (stereo not given)
> 100 µM (inactive)
O=C(CC(=O)c1ccccc1)c1ccccc1.O=C(CC(=O)c1ccccc1)c1ccccc1.O=C(CC(=O)c1ccccc1)c1ccccc1.[SiH4]
10.4 µM (inactive)
COc1ccc2c(c1)[n+]([O-])c(-c1c(Cl)cccc1Cl)c(N)[n+]2[O-]
> 100 µM (inactive)
COc1ccc(C2SCC(=O)N2NC(=O)c2ccc(NC(C)=O)cc2)c(OC)c1 (stereo not given)
> 100 µM (inactive)
N#CC(C(=O)C(=O)Nc1ccc(Cl)cc1)c1ccccc1 (stereo not given)
> 100 µM (inactive)

Hi team, please reply with GI50 for each item in this list.
1. O=C1CCCCC(=O)OC2(CCCCC2=O)CC1 (stereo not given)
2. CCOC(=O)C1=C(N)N(c2ccccc2)/C(=C(/C#N)c2nc3ccccc3[nH]2)S1
3. O=C1Nc2c(Cl)cc(Cl)cc2/C1=N/NC(=O)c1ccncc1

5.82 µM (inactive)
> 100 µM (inactive)
46.3 µM (inactive)

Hi team, please reply with GI50 for each item in this list.
1. CCOC(=O)C1=CC(C)(C(=O)OCC)Nc2c(nc(OC)[nH]c2=O)N1 (stereo not given)
2. CCOC(=O)C(c1ccsc1)P(=O)(OCC)OCC (stereo not given)

["> 10 µM (inactive)", "24.1 µM (inactive)"]

====

# Test system: COLO 205
# assayNotes: NCI tumour cell line growth inhibition, 48 h
Active and inactive are the calls of the source. Rule as the data show it: active = GI50 up to about 1.1 µM and inactive = higher.
readoutKind: GI50

CNC(=O)OC(COC)CN1CCN(c2ccccc2C)CC1 (centres undefined)
> 10 µM (inactive)

Hi team, please reply with GI50 for each item in this list.
1. CCOc1ccc(NC(=O)CC2SC(N)=NC2=O)cc1 (centres undefined)
2. CSc1ccc(N2C(=O)C3c4[nH]c5ccccc5c4C4CCC(C(C)(C)C)CC4C3C2=O)cc1 (centres undefined)
3. CC(C)NC(=O)OCc1c(COC(=O)NC(C)C)n(C)c2c1ccc1sccc12

1: > 100 µM (inactive); 2: 10 µM (inactive); 3: 13.6 µM (inactive)

Hi team, please reply with GI50 for each item in this list.
1. CCCCCCCCCCCC[C@@H](O)[C@H]1CC[C@H]([C@H](O)CCCC[C@H](O)CCCCC[C@@H](O)CC2=C[C@H](C)OC2=O)O1
2. COc1ccc(C2SCC(=O)N2NC(=O)c2ccc(NC(C)=O)cc2)c(OC)c1 (centres undefined)
3. CC1(C)CCC2(C(=O)OC3OC(CO)C(O)C(O)C3O)CCC3(CO)C(=CCC4C5(C)CC(O)C(O)C(C)(C(=O)OC6OC(CO)C(O)C(O)C6O)C5CCC43C)C2C1 (centres undefined)
4. CCOC(=O)C1=C(N)N(c2ccccc2)/C(=C(/C#N)c2nc3ccccc3[nH]2)S1

["1.75 µM (inactive)", "> 100 µM (inactive)", "> 100 µM (inactive)", "> 100 µM (inactive)"]

Short answer on COLO 205 for O=C1CCCc2cc3c(cc21)CC1(Cc2ccccc2C1)C3 , GI50: 1.93 µM (inactive)

====

For each entry below, report its GI50 value.
# System: MCF7
# assayNotes: NCI tumour cell line growth inhibition, 48 h
Calls of active or inactive are those of the source. Rule as the data show it: active = GI50 up to about 1.1 µM and inactive = higher.

# count of solved cases: 5
C/C(Cl)=N\OC(=O)Nc1ccc([N+](=O)[O-])cc1
3.08 µM (inactive)
Clc1ccccc1/C=C/c1ccnc2ccccc12
11.6 µM (inactive)
CN(/N=C/c1ccc(OCc2cccc(COc3ccc(C=O)cc3)n2)cc1)c1cnn(-c2ccc(Cl)cc2Cl)c(=O)c1Cl
> 100 µM (inactive)
COc1cc([N+](=O)[O-])c(S(=O)(=O)O)cc1-n1nc(-c2ccccc2)n[n+]1-c1cc(S(=O)(=O)[O-])c([N+](=O)[O-])cc1OC
> 100 µM (inactive)
Cc1cc(C)nc(NC(=S)Nc2ccc(Cl)cc2)c1
> 100 µM (inactive)

Hi team, please reply with GI50 for each item in this list.
1. Nc1nc(N)c(C2=CCNCC2)c(=O)[nH]1
2. CC1NC(=O)CC(c2ccccc2)N(N=O)C1c1ccccc1 (centres undefined)
3. CCCCCCCCCCCC[C@H](O)[C@H]1CC[C@H]([C@H](O)CCCC[C@H](O)CCCCC[C@@H](O)CC2=C[C@H](C)OC2=O)O1
4. CCOc1cc(NC(C)=O)ccc1C(=O)NN1C(=O)/C(=C/c2cc(OC)c(OC)c(OC)c2)N=C1c1ccccc1

["> 100 µM (inactive)", "44.3 µM (inactive)", "1.4 µM (inactive)", "> 100 µM (inactive)"]

====

For each entry below, report its GI50 value.
# Test system: HOP-62
# assayNotes: NCI tumour cell line growth inhibition, 48 h
Calls of active or inactive are those of the source. Rule as the data show it: active = GI50 up to about 1.1 µM and inactive = higher. Peptide text beside a SMILES is read from it. * marks the point of attachment. Trt = c1ccc(C(c2ccccc2)(c2ccccc2)*)cc1; Cbz = O=C(OCc1ccccc1)*

# count of solved cases: 5
CC(C)(C)C1=CC(=N/N=c2\scc(-c3ccccc3)n2Cc2ccccc2)C=C(C(C)(C)C)C1=O
> 100 µM (inactive)
C=C1C(=O)OC2C1C(OC(=O)/C(C)=C/C)CC(O)(CCl)C1C(O)C3OC3(C)C21O (stereo not given)
> 50 µM (inactive)
ClCCCN(CCCCl)c1ccc(/C=N/c2cccc(Cl)c2)cc1
18.7 µM (inactive)
CN(C)CCNc1c2ccccc2c2c3c(cccc13)C(=O)N(CCN(C)C)C2=O
1.67 µM (inactive)
COC(=O)C(CO)NC(=O)C(CSC(c1ccccc1)(c1ccccc1)c1ccccc1)NC(=O)OCc1ccccc1 (stereo not given) (Cbz-Cys(Trt)-Ser-OMe; configuration not given here)
17.3 µM (inactive)

Hi team, please reply with GI50 for each item in this list.
1. NC(=O)/C=C/NC(=O)/C=N\O
2. Cc1noc(/N=C2\C=C(Nc3onc(C)c3C)C(=O)c3ccccc32)c1C

> 100 µM (inactive)
> 100 µM (inactive)

Hi team, please reply with GI50 for each item in this list.
1. NC(CNc1ccc(O)cc1)C(=O)O (stereo not given)
2. CS/C(c1ccccc1)=[N+](/C)[O-]
3. COc1ccc(N(C)S(=O)(=O)c2ccccc2)cc1
4. N#C/C(N)=C(\C#N)NC(=O)C(=O)N/C(C#N)=C(\N)C#N
5. Cc1c([C@H](C)[C@@H]2NC[C@@H](C)C[C@H]2O)ccc2c1C[C@H]1[C@H]2CC=C2C[C@@H](O)CC[C@@]21C
6. CC(=O)c1c(-c2cccc3ccccc23)c(C#N)c(=S)n(C2OC(CO)C(O)C(O)C2O)c1C (stereo not given)

> 100 µM (inactive)
> 100 µM (inactive)
> 100 µM (inactive)
> 100 µM (inactive)
23.4 µM (inactive)
54.8 µM (inactive)

Hi team, please reply with GI50 for each item in this list.
1. CC(C)Oc1c(O)c2c3c(oc(=O)n3C=CC2c2ccccc2)c1OC(C)C (stereo not given)
2. COc1ccc(CCN(C)C(=O)CC(C#N)(c2ccccc2)c2ccc(OC)c(OC)c2)cc1OC (stereo not given)
3. C[C@H]1CC[P+](C)(c2ccccc2)C1 (stereo not given in full)
4. CCOC(=O)/C=C(/C(=O)OCC)n1cc(C)c(=O)n(Cc2cn(COCCOC(C)=O)nn2)c1=O
5. Cc1ccc(NC=O)c(-c2c(N)[nH]c(=S)[nH]c2=O)c1
6. Cc1ccc(C(=O)CC2(O)C(=O)Nc3c(C)cc(Cl)cc32)cc1 (stereo not given)
7. CC1=C(C(=O)N(C(C)C)C(C)C)CC(C(=O)N(C(C)C)C(C)C)=C(C)N1

1. 26.7 µM (inactive)
2. > 100 µM (inactive)
3. > 100 µM (inactive)
4. > 100 µM (inactive)
5. > 100 µM (inactive)
6. > 100 µM (inactive)
7. > 100 µM (inactive)
